# Lookup of reported kon keyed by entry
molecular target: aTNF-Fab (Fab fragment of anti-human TNFα monoclonal IgG, generic name Infliximab, product name Remicade); experiment: SPR Biacore 3000, aTNF-Fab amine-coupled on CM5, peptide flowed, 25 °C, pH 7.4, 1:1 fit
Quantity name: kon (M⁻¹ s⁻¹)

| Binder | Observed measurement |
| --- | --- |
| GB1#-T17A.1d (designed binder) GPLGSTTYKLILNGKTLTGYTAAIAADAATAEIVLKQFANDNGIDGEWTYDDATKTFTVTE | 25000 |
| GB1#-Cont.1d (designed binder) GPLGSTTYKLILNGKTLTGYTTAIAADAATAEIVLKQFANDNGIDGEWTYDDATKTFTVTE | 41700 |
| GB1#-D36V.1d (designed binder) GPLGSTTYKLILNGKTLTGYTTAIAADAATAEIVLKQFANVNGIDGEWTYDDATKTFTVTE | 32800 |
| GB1#-T17V.1d (designed binder) GPLGSTTYKLILNGKTLTGYTVAIAADAATAEIVLKQFANDNGIDGEWTYDDATKTFTVTE | 19100 |
